So I've got pKi readings for Beta-3 adrenergic receptor (Homo sapiens), take a look.
// pKi: -log10(molar conc.)

Worked examples, 2 molecules total:
[[record]]
molecule = "CS(=O)(=O)Nc1cc(C(O)CNC(Cc2ccccc2)c2ccc(F)cc2)ccc1O (configuration not stated)"
system_tested = "Beta-3 adrenergic receptor (Homo sapiens)"
assay_value = 6.08

[[record]]
molecule = "CS(=O)(=O)Nc1cc([C@@H](O)CNC(Cc2ccccc2)c2ccc(OCc3ccccc3)cc2)ccc1O (some centres not stated)"
system_tested = "Beta-3 adrenergic receptor (Homo sapiens)"
assay_value = 7.15


Task: Field request: pKi | item: Cc1cc([C@@H](Cc2ccccc2)NC[C@H](O)c2ccc(O)c(NS(C)(=O)=O)c2)ccc1OC(F)F
Result: 7.16

Task: Field request: pKi | item: CS(=O)(=O)Nc1cc(C(O)CNC(Cc2ccccc2)c2ccncc2)ccc1O (configuration not stated)
Result: 6.15

Task: Field request: pKi | item: CS(=O)(=O)Nc1cc(C(O)CNC(Cc2ccccc2)c2nccs2)ccc1O (configuration not stated)
Result: 5.62

Task: Field request: pKi | item: CS(=O)(=O)Nc1cc([C@@H](O)CN[C@H](Cc2ccccc2)c2ccc(CC(N)=O)cc2)ccc1O
Result: 7.13

Task: Field request: pKi | item: COc1ccc([C@@H](Cc2ccccc2)NC[C@H](O)c2ccc(O)c(NS(C)(=O)=O)c2)c2ccccc12
Result: 7.59

====

Assay: Tested for half life upon iv administration to african green monkey
Assay type: ADME, organism-based
Settings: cercopithecidae, in vivo
readout: half-life (h)
All answers are understood in h, so give the number only.

Task: Field request: half-life | item: CS(=O)(=O)Nc1cc([C@@H](O)CN[C@H](Cc2ccccc2)c2ccc(OC(F)F)cc2)ccc1O
Result: 7.3

====

Tested on: ADRB1+ADRB3 (+)
Assay: Tested for binding selectivity to beta3 adrenoceptor versus beta-1 adrenoceptor
readout: Selectivity ratio
Format: numeric value only, no unit, no commentary.

Worked examples, 2 compounds total:
[[record]]
compound = "CNC(=O)c1ccc([C@@H](Cc2ccccc2)NC[C@H](O)c2ccc(O)c(NS(C)(=O)=O)c2)cc1"
readout = "Selectivity ratio"
assay_value = 79

[[record]]
compound = "CS(=O)(=O)Nc1cc([C@@H](O)CN[C@H](Cc2ccccc2)c2ccc(OC(F)F)c3ccccc23)ccc1O"
readout = "Selectivity ratio"
assay_value = 275


Task: Field request: Selectivity ratio | item: CS(=O)(=O)Nc1cc([C@@H](O)CNC(Cc2ccccc2)c2ccc(OCC(F)(F)F)cc2)ccc1O (some centres undefined)
Result: 83

Task: Field request: Selectivity ratio | item: CS(=O)(=O)Nc1cc([C@@H](O)CN[C@H](Cc2ccccc2)c2ccc(C(=O)O)cc2)ccc1O
Result: 17

====

Biological target: Beta-1 adrenergic receptor (Cavia porcellus)
Assay: Beta1 receptor intrinsic activity is given as a percent of the maximal increase in the beating rate of an isolated spontaneously beating guinea pig atrium induced by isoproterenol
Format: functional, tissue-based
Conditions: Cardiac atrium
In this section we review reported Activity values for a set of compounds.
All answers are understood in %, so give the number only.

Worked examples, 6 compounds total:
[[record]]
structure_notation = "COc1ccc([C@@H](Cc2ccccc2)NC[C@H](O)c2ccc(O)c(NS(C)(=O)=O)c2)c(OC)n1"
readout = "Activity"
assay_value = 60

[[record]]
structure_notation = "CS(=O)(=O)Nc1cc([C@@H](O)CN[C@H](Cc2ccccc2)c2ccc3c(c2)OCO3)ccc1O"
readout = "Activity"
assay_value = 80

[[record]]
structure_notation = "COc1ccc([C@@H](Cc2ccccc2)NC[C@H](O)c2ccc(O)c(NS(C)(=O)=O)c2)c2ccccc12"
readout = "Activity"
assay_value = 22

[[record]]
structure_notation = "CS(=O)(=O)Nc1cc([C@@H](O)CN[C@H](Cc2ccccc2)c2cccc3ccccc23)ccc1O"
readout = "Activity"
assay_value = 40

[[record]]
structure_notation = "CS(=O)(=O)Nc1cc([C@@H](O)CN[C@H](Cc2ccccc2)c2ccc(OC(F)F)cc2)ccc1O"
readout = "Activity"
assay_value = 45

[[record]]
structure_notation = "CS(=O)(=O)Nc1cc([C@@H](O)CN[C@H](Cc2ccccc2)c2ccc(OC(F)F)c3ccccc23)ccc1O"
readout = "Activity"
assay_value = 23


Task: Tell me reported Activity for COc1ccc([C@@H](Cc2ccccc2)NC[C@H](O)c2ccc(O)c(NS(C)(=O)=O)c2)cn1 , tested with Beta-1 adrenergic receptor (Cavia porcellus).
Result: 70

====

Test system: ADRB2+ADRB3 (+)
Assay: Tested for binding selectivity to beta3 adrenoceptor versus beta2 adrenoceptor
readout: Selectivity ratio
Format: numeric value only, no unit, no commentary.

[[record]]
compound = "CS(=O)(=O)Nc1cc([C@@H](O)CN[C@H](Cc2ccccc2)c2ccc(OC(F)F)c3ccccc23)ccc1O"
system_tested = "ADRB2+ADRB3 (+)"
assay_value = 9

[[record]]
compound = "CS(=O)(=O)Nc1cc([C@@H](O)CN[C@H](Cc2ccccc2)c2ccc(C(=O)NO)cc2)ccc1O"
system_tested = "ADRB2+ADRB3 (+)"
assay_value = 4

[[record]]
compound = "CN(C)C(=O)c1ccc([C@@H](Cc2ccccc2)NC[C@H](O)c2ccc(O)c(NS(C)(=O)=O)c2)cc1"
system_tested = "ADRB2+ADRB3 (+)"
assay_value = 0.4


Task: Field request: Selectivity ratio | item: CS(=O)(=O)Nc1cc(C(O)CNC(Cc2ccccc2)c2ccsc2)ccc1O (centres undefined)
Result: 0.3

Task: Field request: Selectivity ratio | item: CS(=O)(=O)Nc1cc([C@@H](O)CN[C@H](Cc2ccccc2)c2ccc(C(=O)O)cc2)ccc1O
Result: 6

Task: Field request: Selectivity ratio | item: CS(=O)(=O)Nc1cc([C@@H](O)CN[C@H](Cc2ccccc2)c2ccc3c(c2)OCO3)ccc1O
Result: 8

Task: Field request: Selectivity ratio | item: CS(=O)(=O)Nc1cc([C@@H](O)CNC(Cc2ccccc2)c2ccc(Oc3ccccc3)cc2)ccc1O (some centres undefined)
Result: 0.5

Task: Field request: Selectivity ratio | item: CNC(=O)c1ccc([C@@H](Cc2ccccc2)NC[C@H](O)c2ccc(O)c(NS(C)(=O)=O)c2)cc1
Result: 3

Task: Field request: Selectivity ratio | item: CS(=O)(=O)Nc1cc(C(O)CNC(Cc2ccccc2)c2ccccc2)ccc1O (centres undefined)
Result: 3

====

In this section we review reported Selectivity ratio values for a set of compounds.
Test system: ADRB1+ADRB3 (+)
Test: Tested for binding selectivity to beta3 adrenoceptor versus beta-1 adrenoceptor
Format: numeric value only, no unit, no commentary.

Worked examples, 2 compounds total:
[[record]]
compound = "CS(=O)(=O)Nc1cc(C(O)CNC(Cc2ccccc2)c2ccncc2)ccc1O (stereo not drawn)"
assay_value = 30

[[record]]
compound = "CS(=O)(=O)Nc1cc([C@@H](O)CN[C@H](Cc2ccccc2)c2ccc(OC(F)F)cc2)ccc1O"
assay_value = 36


Shift focus to the following entry.
Task: Field request: Selectivity ratio | item: CS(=O)(=O)Nc1cc([C@@H](O)CN[C@H](Cc2ccccc2)c2ccc(OC(F)F)c(OC(F)F)c2)ccc1O
Result: 37

====

In this section we review reported Selectivity ratio values for a set of compounds.
System: ADRB1+ADRB3 (+)
Assay: Tested for binding selectivity to beta3 adrenoceptor versus beta-1 adrenoceptor
Format: numeric value only, no unit, no commentary.

Worked examples, 4 compounds total:
[[record]]
compound = "CS(=O)(=O)Nc1cc([C@@H](O)CNC(Cc2ccccc2)c2ccc(Oc3ccccc3)cc2)ccc1O (stereo not given in full)"
system_tested = "ADRB1+ADRB3 (+)"
assay_value = 4

[[record]]
compound = "C[C@](Cc1ccccc1)(NC[C@H](O)c1ccc(O)c(NS(C)(=O)=O)c1)c1ccc(OC(F)F)cc1"
system_tested = "ADRB1+ADRB3 (+)"
assay_value = 12

[[record]]
compound = "COc1ccc([C@@H](Cc2ccccc2)NC[C@H](O)c2ccc(O)c(NS(C)(=O)=O)c2)c2ccccc12"
system_tested = "ADRB1+ADRB3 (+)"
assay_value = 46

[[record]]
compound = "CS(=O)(=O)Nc1cc(C(O)CNC(Cc2ccccc2)c2ccc(S(C)(=O)=O)cc2)ccc1O (stereo not given)"
system_tested = "ADRB1+ADRB3 (+)"
assay_value = 53


Shift focus to the following entry.
Task: Field request: Selectivity ratio | item: COc1ccc([C@@H](Cc2ccccc2)NC[C@H](O)c2ccc(O)c(NS(C)(=O)=O)c2)cn1
Result: 180

From: ChEMBL document CHEMBL1133858
